The measured values listed here are drawn from patent US11390618B2.

# Experimental Target: CDK12 wt/CycK (Homo sapiens (Human))
# Sequence (Q9NYV4 whole entry): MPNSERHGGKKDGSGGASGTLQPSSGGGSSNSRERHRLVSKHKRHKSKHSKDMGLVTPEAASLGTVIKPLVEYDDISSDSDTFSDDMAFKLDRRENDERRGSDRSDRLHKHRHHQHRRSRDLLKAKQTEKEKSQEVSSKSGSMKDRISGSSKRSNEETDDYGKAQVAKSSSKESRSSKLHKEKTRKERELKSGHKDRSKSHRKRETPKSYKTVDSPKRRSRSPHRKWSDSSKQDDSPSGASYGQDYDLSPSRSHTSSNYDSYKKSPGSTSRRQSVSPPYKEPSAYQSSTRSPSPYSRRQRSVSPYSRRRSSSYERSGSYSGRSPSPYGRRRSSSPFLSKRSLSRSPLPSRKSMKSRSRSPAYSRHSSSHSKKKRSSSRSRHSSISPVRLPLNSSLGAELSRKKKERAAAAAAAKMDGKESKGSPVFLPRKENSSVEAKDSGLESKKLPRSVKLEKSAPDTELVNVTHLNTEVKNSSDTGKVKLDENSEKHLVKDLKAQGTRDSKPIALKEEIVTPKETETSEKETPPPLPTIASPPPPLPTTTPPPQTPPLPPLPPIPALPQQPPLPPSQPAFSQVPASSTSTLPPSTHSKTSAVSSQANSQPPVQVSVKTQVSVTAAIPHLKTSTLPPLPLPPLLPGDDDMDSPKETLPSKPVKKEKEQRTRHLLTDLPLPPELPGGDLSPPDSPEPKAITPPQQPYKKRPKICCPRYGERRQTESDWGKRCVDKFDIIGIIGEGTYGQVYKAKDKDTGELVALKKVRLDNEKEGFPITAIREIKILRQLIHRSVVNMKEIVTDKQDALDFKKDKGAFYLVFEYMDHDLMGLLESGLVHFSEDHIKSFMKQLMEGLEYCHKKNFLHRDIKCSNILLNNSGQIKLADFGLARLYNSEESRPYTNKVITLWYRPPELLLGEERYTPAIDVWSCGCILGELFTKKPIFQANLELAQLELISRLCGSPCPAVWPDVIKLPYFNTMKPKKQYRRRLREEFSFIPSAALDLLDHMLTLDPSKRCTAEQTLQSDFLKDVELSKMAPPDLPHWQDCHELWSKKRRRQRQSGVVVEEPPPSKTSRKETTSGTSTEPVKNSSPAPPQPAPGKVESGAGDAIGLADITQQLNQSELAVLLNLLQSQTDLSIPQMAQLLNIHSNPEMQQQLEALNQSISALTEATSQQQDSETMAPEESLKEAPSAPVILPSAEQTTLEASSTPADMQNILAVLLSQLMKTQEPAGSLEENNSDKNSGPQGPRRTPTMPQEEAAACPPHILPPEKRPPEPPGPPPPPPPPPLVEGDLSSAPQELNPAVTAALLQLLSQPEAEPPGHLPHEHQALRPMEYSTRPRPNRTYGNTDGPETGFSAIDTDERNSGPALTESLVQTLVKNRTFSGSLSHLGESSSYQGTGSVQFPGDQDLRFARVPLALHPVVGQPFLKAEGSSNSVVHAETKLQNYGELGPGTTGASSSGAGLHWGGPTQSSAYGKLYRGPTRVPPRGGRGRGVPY
# Sequence (O75909 whole entry partner): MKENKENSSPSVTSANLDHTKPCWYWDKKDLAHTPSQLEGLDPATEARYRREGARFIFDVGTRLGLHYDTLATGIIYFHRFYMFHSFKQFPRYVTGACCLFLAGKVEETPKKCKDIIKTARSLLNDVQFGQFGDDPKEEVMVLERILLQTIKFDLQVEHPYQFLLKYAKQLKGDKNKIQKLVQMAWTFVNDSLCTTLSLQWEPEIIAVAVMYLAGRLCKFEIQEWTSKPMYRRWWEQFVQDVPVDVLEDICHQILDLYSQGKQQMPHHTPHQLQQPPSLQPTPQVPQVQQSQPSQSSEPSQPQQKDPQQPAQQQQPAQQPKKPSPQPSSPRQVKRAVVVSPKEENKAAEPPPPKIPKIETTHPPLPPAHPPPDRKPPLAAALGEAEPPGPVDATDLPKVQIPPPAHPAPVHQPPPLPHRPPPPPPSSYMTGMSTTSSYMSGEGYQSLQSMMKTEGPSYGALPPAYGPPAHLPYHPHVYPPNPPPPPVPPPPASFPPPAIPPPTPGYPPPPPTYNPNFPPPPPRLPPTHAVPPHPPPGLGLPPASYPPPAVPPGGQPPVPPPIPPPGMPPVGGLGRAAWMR
# Assay Explanation: Radiometric protein kinase assay (33PanQinase Activity Assay), Assay Condition A (thiol containing conditions)
# Experimental Setup: thiol containing conditions (1.2 mM DTT), ATP at apparent Km
Endpoint Label: IC50

Task: Recorded IC50 of COc1nc(N[C@@H]2CCN(C(=O)c3ccc(NC(=O)/C=C/CN4CC[C@@H](F)C4)cn3)C2)ncc1Cl [Example 170] , please.
Output: 100 to 1000 nM
